System: NCI-H460, human non-small-cell lung carcinoma cells
Assay: Proliferation assay (Assay 5), NCI-H460
Assay type: cell-based
Conditions: 96 h, NCI-H460, 4 days, read-out: Concentration of the half-maximal inhibition of the cell proliferation, IC50
# IC50 listing for each entry below
Numbers only; they are read as nM.

Below, each entry is followed by its recorded IC50 result.
C[C@@H](Oc1nc(Nc2ccc(S(C)(=O)=O)cc2)ncc1C(F)(F)F)C(C)(C)O :: 140
C[C@@H](O)[C@@H](C)Oc1nc(Nc2ccc(S(=O)(=O)C3CC3)cc2)ncc1C(F)(F)F :: 41
C[C@@H](Oc1nc(Nc2ccc(S(=O)(=O)C3CC3)cc2)ncc1C(F)(F)F)C(C)(C)O :: 226
C[C@@H](Nc1nc(Nc2ccc(S(C)(=O)=O)cc2)ncc1C(F)(F)F)C(C)(C)O [C3, reference compound] :: 93
C[C@@H](O)[C@@H](C)Nc1nc(Nc2ccc(S(=O)(=O)C3CC3)cc2)ncc1C(F)(F)F [C1, reference compound] :: 37

Req: Quick one: IC50 for C[C@@H](O)[C@@H](C)Nc1nc(Nc2ccc(S(C)(=O)=O)cc2)ncc1C(F)(F)F [C2, reference compound] ?
Resp: 34

----------
Test: Permeability assay (Assay 6), Caco-2 monolayer
Format: in vitro ADME
Details: human; Caco-2, 90 min, 37° C.; read-out: Permeation coefficient, Papp basolateral-apical (b-a)
reported.metric: Papp B→A at 90 min (×10⁻⁶ cm/s)
Numbers only; they are read as ×10⁻⁶ cm/s.

Req: Quick one: Papp B→A at 90 min for C[C@@H](O)[C@@H](C)Oc1nc(Nc2ccc(S(C)(=O)=O)cc2)ncc1C(F)(F)F [Example 2] ?
Resp: 19.4

Req: Quick one: Papp B→A at 90 min for C[C@@H](O)[C@@H](C)Oc1nc(Nc2ccc(S(=O)(=O)C3CC3)cc2)ncc1C(F)(F)F [Example 1] ?
Resp: 14.7

Req: Quick one: Papp B→A at 90 min for C[C@@H](O)[C@@H](C)Nc1nc(Nc2ccc(S(C)(=O)=O)cc2)ncc1C(F)(F)F [C2, reference compound] ?
Resp: 17.8

Req: Quick one: Papp B→A at 90 min for C[C@@H](O)[C@@H](C)Nc1nc(Nc2ccc(S(=O)(=O)C3CC3)cc2)ncc1C(F)(F)F [C1, reference compound] ?
Resp: 17.4

----------
System: MCF7, hormone-independent human breast carcinoma cells
Experiment: Proliferation assay (Assay 5), MCF7
Assay type: cell-based
Conditions: 96 h, MCF7, 4 days, read-out: Concentration of the half-maximal inhibition of the cell proliferation, IC50
# pIC50 listing for each entry below
When answering, recall that pIC50 equals minus log10 of the concentration in mol/L, and write that number alone.

Below, each entry is followed by its recorded pIC50 result.
C[C@@H](O)[C@@H](C)Oc1nc(Nc2ccc(S(=O)(=O)C3CC3)cc2)ncc1C(F)(F)F :: 7.64
C[C@@H](Oc1nc(Nc2ccc(S(C)(=O)=O)cc2)ncc1C(F)(F)F)C(C)(C)O :: 6.80
COC[C@@H](C)Oc1nc(Nc2ccc(S(C)(=O)=O)cc2)ncc1C(F)(F)F :: 6.72
C[C@@H](O)[C@@H](C)Nc1nc(Nc2ccc(S(C)(=O)=O)cc2)ncc1C(F)(F)F [C2, reference compound] :: 7.37
C[C@@H](Nc1nc(Nc2ccc(S(C)(=O)=O)cc2)ncc1C(F)(F)F)C(C)(C)O [C3, reference compound] :: 7.21

Req: Quick one: pIC50 for "C=CCOc1nc(Nc2ccc(S(C)(=O)=O)cc2)ncc1C(F)(F)F" ?
Resp: 5.82

Req: Quick one: pIC50 for "C[C@@H](Oc1nc(Nc2ccc(S(=O)(=O)C3CC3)cc2)ncc1C(F)(F)F)C(C)(C)O" ?
Resp: 6.98

Req: Quick one: pIC50 for C[C@@H](O)[C@@H](C)Nc1nc(Nc2ccc(S(=O)(=O)C3CC3)cc2)ncc1C(F)(F)F [C1, reference compound] ?
Resp: 7.19

Req: Quick one: pIC50 for "CS(=O)(=O)c1ccc(Nc2ncc(C(F)(F)F)c(OC3CCCCC3)n2)cc1" ?
Resp: 5.85
